The values you see were collected from patent US20210371518A1.

- TGT: LILRA2 (human (not printed on the sheet), UniProt Q8N149)
- Sequence (Q8N149 24-449 limits assumed): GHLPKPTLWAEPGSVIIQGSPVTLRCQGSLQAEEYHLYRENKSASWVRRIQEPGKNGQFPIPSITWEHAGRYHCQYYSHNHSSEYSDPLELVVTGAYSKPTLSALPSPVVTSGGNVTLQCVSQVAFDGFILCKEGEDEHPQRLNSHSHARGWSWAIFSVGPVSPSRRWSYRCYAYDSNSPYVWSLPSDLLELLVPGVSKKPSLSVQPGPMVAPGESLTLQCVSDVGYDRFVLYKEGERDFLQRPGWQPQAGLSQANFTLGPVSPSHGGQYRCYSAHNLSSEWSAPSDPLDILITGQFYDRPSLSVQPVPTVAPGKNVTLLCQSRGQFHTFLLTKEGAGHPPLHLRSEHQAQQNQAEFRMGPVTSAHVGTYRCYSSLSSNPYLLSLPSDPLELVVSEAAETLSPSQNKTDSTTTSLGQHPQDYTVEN
- PROCEDURE TEXT: LILR reporter cells on coated antibody, GFP positive (%)
MEASUREMENT TYPE: binding result

Known results for binders:
h193 antibody No. 20 (h193-H3 / h193-K2) (antibody, V domains shown) VH: EVQLVESGGGLVQPGGSLRLSCAASGFSLSSSYWISWVRQAPGKGLEWIGSIDSGSVGITYYATWAKGRFTISRDNSKNTLYLQMNSLRAEDTAVYYCARHGDNWALDLWGQGTLVTVSS VL: DLVMTQSPSTLSASVGDRVTITCQASQSINSWLAWYQQKPGKPPKLLIYKASTLASGVSSRFSGSGSGTEFTLTISSLQPDDVATYYCQHGYIRGDLDNVFGGGTKVEIK ... no binding
h193 antibody No. 32 (h193-H6 / h193-K2) (antibody, V domains shown) VH: EVQLVESGGGLVQPGGSLRLSCAASGFSLSSSYWISWVRQAPGKGLEWIGSIDSGSVGITYYATSAKGRFTISRDNSKNTLYLQMNSLRAEDTAVYYCARHGDNWALDLWGQGTLVTVSS VL: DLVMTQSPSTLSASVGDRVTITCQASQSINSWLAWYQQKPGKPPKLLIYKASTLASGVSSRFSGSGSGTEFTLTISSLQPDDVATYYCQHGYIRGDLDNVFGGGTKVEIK ... no binding
h193 antibody No. 28 (h193-H5 / h193-K2) (antibody, V domains shown) VH: EVQLVESGGGLVQPGGSLRLSCAASGFSLSSSYWISWVRQAPGKGLEWIGVIDSGSVGITYYATWAKGRFTISRDNSKNTLYLQMNSLRAEDTAVYYCARHGDNWALDLWGQGTLVTVSS VL: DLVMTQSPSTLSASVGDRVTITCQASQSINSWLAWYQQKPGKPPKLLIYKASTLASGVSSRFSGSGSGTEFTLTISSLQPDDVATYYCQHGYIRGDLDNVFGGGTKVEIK ... no binding
h193 antibody No. 27 (h193-H5 / h193-K1) (antibody, V domains shown) VH: EVQLVESGGGLVQPGGSLRLSCAASGFSLSSSYWISWVRQAPGKGLEWIGVIDSGSVGITYYATWAKGRFTISRDNSKNTLYLQMNSLRAEDTAVYYCARHGDNWALDLWGQGTLVTVSS VL: DIQMTQSPSTLSASVGDRVTITCQASQSINSWLAWYQQKPGKAPKLLIYKASTLASGVPSRFSGSGSGTEFTLTISSLQPDDFATYYCQHGYIRGDLDNVFGGGTKVEIK ... no binding

Task: What does the data say about its binding result? Entry: h193 antibody No. 37 (h193-H7 / h193-K3) (antibody, V domains shown) VH: EVQLVESGGGLVQPGGSLRLSCAASGFSLSSSYWISWVRQAPGKGLEWIGSIDSGSVGITYYATWVKGRFTISRDNSKNTLYLQMNSLRAEDTAVYYCARHGDNWALDLWGQGTLVTVSS VL: DIQMTQSPSTLSASVGDRVTITCRASQSINSWLAWYQQKPGKAPKLLIYKASTLASGVPSRFSGSGSGTEFTLTISSLQPDDFATYYCQHGYIRGDLDNVFGGGTKVEIK
Result: no binding
